Data credit: paper PMC3154423

- system-tested: Jun bZIP R272A;Fos bZIP R143A (human;human, UniProt P05412;P01100 252-315;137-200, R272A|R143A)
- Sequence (P05412 252-315 R272A, chain 1 of 2): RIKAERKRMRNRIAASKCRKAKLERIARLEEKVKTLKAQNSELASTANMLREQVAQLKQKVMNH
- Sequence (P01100 137-200 R143A, chain 2 of 2): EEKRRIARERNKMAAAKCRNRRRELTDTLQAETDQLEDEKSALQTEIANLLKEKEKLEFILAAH
- measurement-description: ITC
experimental-readout: pKd
pKd here: minus log base 10 of the concentration, concentration in moles per litre.

Query string: Returns the measured pKd for the input binder. Input: TRE duplex 15-mer (dsDNA) DNA 1: CGCGTGACTCACCCC DNA 2: GGGGTGAGTCACGCG
Result string: 6.04
